B1: CPEB3 Ribozyme (parent)
chain: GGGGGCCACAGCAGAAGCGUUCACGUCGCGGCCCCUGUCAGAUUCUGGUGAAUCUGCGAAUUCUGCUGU

# Variants of: B1
# procedure-text: self-cleavage, relative activity (ratio to wild type); higher = more cleavage; co-transcriptional
observation-type: self-cleavage
Kindly provide the number alone.

Ask: State, in one line, measured self-cleavage of G14U
Reply: 0.855

Ask: State, in one line, measured self-cleavage of C22U A52U
Reply: 0.315

Ask: State, in one line, measured self-cleavage of G11C U43G
Reply: 0.279
